Molecular target: T1, CRBN, Q96SW2;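 also: pooled lentiviral library of zinc finger degron-EGFP fusions in mCherry-positive Jurkat cells, FACS-sorted after compound exposure, with degron abundance counted by next-generation sequencing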
T1 chain: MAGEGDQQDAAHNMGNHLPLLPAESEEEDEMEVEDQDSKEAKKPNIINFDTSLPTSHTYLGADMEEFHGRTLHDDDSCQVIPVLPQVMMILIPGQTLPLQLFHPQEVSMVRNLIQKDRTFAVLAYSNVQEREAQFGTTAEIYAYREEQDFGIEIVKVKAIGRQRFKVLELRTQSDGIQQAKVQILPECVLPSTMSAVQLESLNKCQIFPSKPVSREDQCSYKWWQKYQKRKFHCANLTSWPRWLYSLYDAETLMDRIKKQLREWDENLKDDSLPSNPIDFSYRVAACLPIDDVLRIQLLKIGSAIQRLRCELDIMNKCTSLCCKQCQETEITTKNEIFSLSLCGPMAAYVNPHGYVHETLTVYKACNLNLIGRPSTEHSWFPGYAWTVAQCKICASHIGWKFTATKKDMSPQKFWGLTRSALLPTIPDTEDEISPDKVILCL
Experiment: log2 fold change of degron read counts, EGFP-low vs EGFP+ sorted cells (limma voom), compound-induced degradation; higher = more compound-induced degradation of the degron-EGFP fusion; degrons are variants of IKZF1/3 zinc finger 2; compound dose not given here
Details: Jurkat; 18 h; compound: compound 22 (5-morpholino-thalidomide)
The full ranking holds about 8,300 sequences; the median of “log2 fold change of degron read counts, EGFP-low vs EGFP+ sorted cells (limma voom), compound-induced degradation” is about -1.1, and the highest 2% start at about 3.2. Many of the other results were omitted from the sample, so the highest values are more common in it than they were.
Each record here notes measured log2 fold change of degron read counts.
Output spec: single numeric token, no unit.

1. FGCPVCGAQFTQKGNLLRHIKL [46F_47G_49P_50V_52G_53A_54Q_55F_67L_, Q9UKT9] | 2.65
2. FRCPQCGAPFTQKGNLLRHIKL [46F_47R_49P_50Q_52G_53A_54P_55F_67L_, Q9UKT9] | 2.89
3. FFCPICGAPFTQKGNLLRHIKL [46F_47F_49P_50I_52G_53A_54P_55F_67L_, Q9UKT9] | 3.44
4. FKCPICGAPFTQKGNLLRHIKL [46F_47K_49P_50I_52G_53A_54P_55F_67L_, Q9UKT9] | 2.24
5. FSCPICGAPFTQKGNLLRHIKL [46F_47S_49P_50I_52G_53A_54P_55F_67L_, Q9UKT9] | 2.92

QUERY: Quick one: log2 fold change of degron read counts for FCCDQCGAQFTQKGNLLRHIKL [46F_47C_49D_50Q_52G_53A_54Q_55F_67L_, Q9UKT9] ?
RESULT: -1.68

QUERY: Likewise for FICPVCGAQFTQKGNLLRHIKL [46F_47I_49P_50V_52G_53A_54Q_55F_67L_, Q9UKT9] ?
RESULT: 2.74
